# credit: paper PMC12468313

- test_target: amplified LBD fibrils (PDB 8FPT) alpha-synuclein (Homo sapiens, UniProt P37840)
- assay: [3H]Tg-1-90B saturation binding assay with amplified LBD fibrils
- details: 50 nM fibrils, 2 h 37 °C
observed_property: pKd
Quick note: pKd values are minus log10 of concentrations in mol/L.

Data request: Complete the entry with pKd for COc1ccc(/C=C/c2cc(-c3nccs3)on2)cc1 [Tg-1-90B]
Data returned: 7.76

----------
- test_target: IVTris fibrils (recombinant Asyn PFF) (Homo sapiens, UniProt P37840)
- assay: [3H]Tg-1-90B saturation binding assay with IVTris fibrils
- details: 250 nM fibrils, 2 h 37 °C, one site saturable specific binding
observed_property: Kd (nM)
Return type: number; implicit unit nM.

Data request: Complete the entry with Kd for COc1ccc(/C=C/c2cc(-c3nccs3)on2)cc1 [Tg-1-90B]
Data returned: 40.1
